Sourced from patent US20150259419A1

- ASSAYED TARGET: T1, human MCAM domain 3 (MCAMhFc domain construct) (human, UniProt P43121 244-321)
- T1 construct: also called amino acids 244-321; not shown: human Fc portion
- T1 sequence: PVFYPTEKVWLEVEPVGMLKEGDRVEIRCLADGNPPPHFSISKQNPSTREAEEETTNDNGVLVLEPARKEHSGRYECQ
- METHOD DESCRIPTION: ForteBio Octet Red, MCAMhFc domains on anti-human IgG Fc biosensors, antibody at 5 ug/ml

# BINDER, binding result
records = [
    ("mouse anti-human MCAM monoclonal antibody clone 1414.1.2 (antibody, V domains shown, Mouse hybridoma antibody) VH: EIQLQQTGPELVKPGASVKISCKASGYSFTDYIMLWVKQSHGKSLEWIGNINPYSGSSGYNLKFKGKATLTVDKSSSTAYMQLNSLTSEDSAVYYCARGKDFAMDYWGQGTSVTVSS VL: DIVMSQSPSSLAVSAGEKVTMSCKSSQSLLNSSTRKNFLAWYQQKPGQSPKLLIYWASTRESGVPDRFTGSGSGTDFTLTISSVQAEDLAVYYCKQSYNRYTFGGGTKLEIK", "binds"),
    ("mouse anti-human MCAM monoclonal antibody clone 1415.1.1 (antibody, V domains shown, Mouse hybridoma antibody) VH: QVQLQQPGAELVQPGAPVKLSCKASGYIFTSYWMNWVKQRPGRGLEWIGRIDPSDSKIHYNQKFKDKATLTVDRSSSTAYIQLGSLTSEDSAVYYCAKEGGLRRGDYAMDYWGQGTSVTVSS VL: DIVMTQSPATLSVTPGDRVSLSCRASQSISDYLHWYQQKSHESPRLLIKYASQSISGIPSRFSGSGSGSDFTLSINSVEPEDVGVYYCQNGHNFPRTFGGGTKLEIK", "binds"),
    ("mouse anti-human MCAM monoclonal antibody clone 1174.1.3 (antibody, V domains shown, Mouse hybridoma antibody) VH: QIQLVQSGPELKKPGETVKISCKASGYTFTNYGMNWVKQAPGKGLKWMGWINTYTGEPTYADDFKGRFALSLETSASTAYLQINNLKNEDMATYFCARYRYNKYERAMDYWGQGTSVTVSS VL: DIVLTQSPASLAVSLGQRATISCRASKSVSTSGYSYMYWYQQKPGQPPKLLIYLASNLESGVPARFSGSGSGTDFTLNIHPVEEEDAATYYCQHSRELPFTFGSGTKLEIK", "binds"),
]
